assayed.target: PepT1 (Homo sapiens, UniProt P46059)
Construct: In Caco-2 cells, only PepT1 was expressed; endogenous in cells; host or cells: Caco-2 (human colon cancer cell line)
Sequence (P46059 1-708): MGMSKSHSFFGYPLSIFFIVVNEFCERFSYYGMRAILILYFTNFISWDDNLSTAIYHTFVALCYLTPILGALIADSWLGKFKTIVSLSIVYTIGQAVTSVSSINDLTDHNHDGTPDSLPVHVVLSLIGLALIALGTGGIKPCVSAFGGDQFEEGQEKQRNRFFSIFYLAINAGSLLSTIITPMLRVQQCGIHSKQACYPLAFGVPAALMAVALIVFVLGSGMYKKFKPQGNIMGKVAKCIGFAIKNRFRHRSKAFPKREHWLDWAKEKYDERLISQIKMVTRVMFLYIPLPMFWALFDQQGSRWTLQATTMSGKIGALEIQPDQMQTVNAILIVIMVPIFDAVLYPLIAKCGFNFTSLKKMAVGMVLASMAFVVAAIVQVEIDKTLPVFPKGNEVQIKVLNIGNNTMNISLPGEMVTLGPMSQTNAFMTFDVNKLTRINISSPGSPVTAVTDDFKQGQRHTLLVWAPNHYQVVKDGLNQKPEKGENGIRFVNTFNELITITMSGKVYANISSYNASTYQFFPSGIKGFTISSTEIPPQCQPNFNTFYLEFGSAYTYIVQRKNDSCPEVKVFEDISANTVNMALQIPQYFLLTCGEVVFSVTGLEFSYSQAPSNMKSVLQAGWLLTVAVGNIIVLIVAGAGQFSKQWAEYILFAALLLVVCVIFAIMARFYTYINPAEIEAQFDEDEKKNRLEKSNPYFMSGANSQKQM
experiment.description: Inhibition of [14C] glycylsarcosine uptake into Caco-2 cells
Format: cell-based
condition.details: estimated from purity of approximately 50% to 60%, read-out: actual IC50 (corrected for purity of AT-264)
Protocol: AT-264's ability to inhibit PepT was examined using a human colon cancer cell line (Caco-2 cells). The results were that the IC50 for uptake of radioactive substrate [^14C] glycylsarcosine into cells was 100 μM (FIG. 1). In Caco-2 cells, only PepT1 was expressed, and PepT1 function was considered to be inhibited by AT-264. The purity of AT-264 used in the present experiment was approximately 50% to 60%, and the actual IC50 was thought to be about 50 μM or so.
measured.property: IC50

Please supply the value of reported IC50 for the item N=C(N)c1cccc(CC(NS(=O)(=O)NCc2cccc3ccccc23)C(=O)N2CCCCC2C(=O)O)c1 (stereo not shown)
~50 µM

---

assayed.target: PepT1 (Homo sapiens, UniProt P46059)
Construct: In Caco-2 cells, only PepT1 was expressed; endogenous in cells; host or cells: Caco-2 (human colon cancer cell line)
experiment.description: Inhibition of [14C] glycylsarcosine uptake into Caco-2 cells
Type: cell-based
condition.details: AT-264 purity approximately 50% to 60%, read-out: IC50 for uptake of radioactive substrate [14C] glycylsarcosine into cells
measured.property: pIC50
In plain terms, pIC50 is the concentration in mol/L turned into minus its base-10 logarithm.

Please supply the value of reported pIC50 for the item N=C(N)c1cccc(CC(NS(=O)(=O)NCc2cccc3ccccc23)C(=O)N2CCCCC2C(=O)O)c1 (stereo not shown)
4.00
